Tested on: L1210
Assay: Inhibition of L1210 lymphoid leukemia cells 24 hr after administration (length of preincubation=0 hr)
Assay type: functional, cell-based
Conditions: Mus musculus
quantityKind: IC50 (nM)
The answer is to be given in nM; state only the numeric part.

# sampleSmiles, quantityKind, unitsText, observedResult
measured = [
    ("CC(C)C[C@H](NC(=O)[C@H](N)C(C)C)C(=O)N[C@@H](CCCCN)C(=O)N(C)c1ccn([C@@H]2O[C@H](CO)[C@@H](O)[C@@H]2O)c(=O)n1.N=C(N)c1ccc(CS(=O)(=O)F)cc1", "IC50", "nM", 1000),
]

Now examine the next entry.
In: Return value of IC50 for input "Nc1ccn([C@@H]2O[C@H](CO)[C@@H](O)[C@@H]2O)c(=O)n1" , no commentary.
Out: 100

The reported numbers originate from ChEMBL document CHEMBL1126194.
